system_under_test: SARS-CoV-2 Mac1 (Severe acute respiratory syndrome coronavirus 2)
assay_remarks: biochemical
conditions_used: 100 µM; inhibitor
assay_endpoint: %inhibition

[[record]]
compound = "CC1=C(C(=O)O)N2C(=O)[C@@H](NC(=O)[C@H](N)C3=CCC=CC3)[C@H]2SC1 [Cephradine monohydrate]"
system_under_test = "SARS-CoV-2 Mac1 (Severe acute respiratory syndrome coronavirus 2)"
observed_value = "0%"

[[record]]
compound = "CCCN[C@H]1CCc2nc(N)sc2C1 [Pramipexole 2HCl Monohydrate]"
system_under_test = "SARS-CoV-2 Mac1 (Severe acute respiratory syndrome coronavirus 2)"
observed_value = "5.796%"

[[record]]
compound = "C[C@H]1c2cccc(O)c2C(=O)C2=C(O)[C@]3(O)C(=O)C(C(N)=O)=C(O)[C@@H](N(C)C)[C@@H]3[C@@H](O)[C@@H]21 [Doxycycline Hyclate]"
system_under_test = "SARS-CoV-2 Mac1 (Severe acute respiratory syndrome coronavirus 2)"
observed_value = "21.8%"

[[record]]
compound = "COc1cc2nccc(Oc3ccc(NC(=O)C4(C(=O)Nc5ccc(F)cc5)CC4)cc3)c2cc1OC [Cabozantinib malate (XL184)]"
system_under_test = "SARS-CoV-2 Mac1 (Severe acute respiratory syndrome coronavirus 2)"
observed_value = "0%"

[[record]]
compound = "CC[C@H]1OC(=O)[C@H](C)[C@@H](O[C@H]2C[C@@](C)(OC)[C@@H](O)[C@H](C)O2)[C@H](C)[C@@H](O[C@@H]2O[C@H](C)C[C@H](N(C)C)[C@H]2O)[C@](C)(O)C[C@@H](C)C(=O)[C@H](C)[C@@H](O)[C@]1(C)O [Erythromycin]"
system_under_test = "SARS-CoV-2 Mac1 (Severe acute respiratory syndrome coronavirus 2)"
observed_value = "0%"

[[record]]
compound = "CCC(=O)NS(=O)(=O)c1ccc(-c2c(-c3ccccc3)noc2C)cc1 [Parecoxib Sodium]"
system_under_test = "SARS-CoV-2 Mac1 (Severe acute respiratory syndrome coronavirus 2)"
observed_value = "8.572%"

[[record]]
compound = "COCCc1ccc(OCC(O)CNC(C)C)cc1 (stereo not shown) [Metoprolol]"
system_under_test = "SARS-CoV-2 Mac1 (Severe acute respiratory syndrome coronavirus 2)"
observed_value = "3.241%"


====

system_under_test: SARS-CoV-2 Mac1 (Severe acute respiratory syndrome coronavirus 2)
assay_remarks: biochemical
conditions_used: read-out: %inhibition
Counter-ions that a name gives are not always drawn.
Catalogue of inhibition at 100 µM values
assay_endpoint: inhibition at 100 µM (%)

[[record]]
compound = "COc1cc2c(cc1OC)[C@@H](c1ccccc1)CN(C)CC2 [R(-)-SCH-12679 maleate]"
observed_value = 96

[[record]]
compound = "N#C/C(=C\\c1ccc(O)c(O)c1)C(=O)NCCCNC(=O)/C(C#N)=C/c1ccc(O)c(O)c1 [Tyrphostin AG 537]"
observed_value = 54

[[record]]
compound = "NNCc1cccc(O)c1 [3-Hydroxybenzylhydrazine dihydrochloride]"
observed_value = 32

[[record]]
compound = "N#C/C(=C\\c1ccc(O)c(O)c1)C(=O)NCc1ccccc1 [Tyrphostin AG 490]"
observed_value = 79

[[record]]
compound = "Oc1ncnc2[nH]ncc12 [Allopurinol]"
observed_value = 37

[[record]]
compound = "Nc1nc(Cl)nc2c1ncn2[C@@H]1O[C@H](COP(=O)(O)OP(=O)(O)OP(=O)(O)O)[C@H](O)C1O (stereo partly drawn)"
observed_value = 57

[[record]]
compound = "Cc1ccc(O)c(N=Nc2ccccc2)n1 [SIB 1757]"
observed_value = 79

[[record]]
compound = "Cc1cccc(C#Cc2ccccc2)n1"
observed_value = 45

[[record]]
compound = "O=C1c2c(O)ccc(O)c2C(=O)c2c(NCCNCCO)ccc(NCCNCCO)c21 [Mitoxantrone]"
observed_value = 53

